B1: TPR t1 (parent)
chain: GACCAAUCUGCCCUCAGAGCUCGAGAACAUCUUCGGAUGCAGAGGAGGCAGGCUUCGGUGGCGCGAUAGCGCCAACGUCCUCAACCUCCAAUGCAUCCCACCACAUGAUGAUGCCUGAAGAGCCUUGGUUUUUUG

Variants of: B1
Assay: polymerase ribozyme fitness, log enrichment relative to wild type (log ratio); higher = more active; in vitro selection for triplet polymerase activity
Recorded polymerase ribozyme fitness (log ratio), one value per entry.
measure_name: polymerase ribozyme fitness (log ratio)

                               mutation_list   result
 0          U21G A26U C72A C104A G110U U125G    -7.09
 1                                C70U U125A    -1.31
 2                                C72U G128U    -1.48
 3                            A26U C73U U81A    -3.86
 4                           G57C C62U G135U    -1.15
 5                   C3U A41C G42A U78C U92G    -3.33
 6                      C13U G42U C70U A121C   0.0681
 7                                U38G C115G    -3.06
 8                             C3G C64U G69A    -2.41
 9                     C73U C97U C102A U130C     -2.5
10                C12G C13A A50C A119U G127A    -1.75
11  G25A C40U G69C G93C C101U C104G C115U A118G    -7.63
12           G42C G60C G77C U78A U130G G135C    -3.55
13               G61A C88G G120A A121C G135U   -0.364
14                        U7C G48U A50G C89U    -1.26
15                           G69A A95C G113A    -3.61
16                                 G48C U78A   -0.274
17                                G63C G117A    -1.45
18           C15U A18G A37G U54A A100U C115A    -5.29
19                           G44C C99U G110A    -6.64
20                        C3A C8A C53G C101A    -1.64
21            G10A G44U U54C G63A C70A U130C    -4.01
22                   A6G C11G G52U U59A G60C   -0.455
23                            U55C A66U A75U   -0.518
24                                C40A C114G     -3.8
25                                 G47U G57A    -1.73
26    A41G C73G U87C C104U C115A C123G G135A  0.00105
27      C15U C64U G77A G93C C98U G120A C124G    -1.82
28                                C89U G117C    -4.26
29                 C12G A24U C76A C82A G120C    -6.17
30                                 G63C A84G    -1.73
31                                 U38G G69U   -0.236
32                      C76A G93C C94A U112G    -4.68
33                                  A6U U54C    0.558
34                                G69U C104A   -0.638
35                       C40U C53U A75G C82U   -0.592
36                           A29C G57U G120U    -2.96
37                                C56A A118G   -0.557
38                          C12G G120C A121G    -1.12
39                               G107C C115A    -6.69
40                            G10C C15A G39C    -4.62
41                                C94G C102A    -3.54
42                           C15G G63A U116G    -3.64
43                 G35A G42C C73U A84U C123U    -6.85
44                                 C13G C98U     -2.7
45                           C15U G71A C102A    -5.13
46                   C8A C22G C31U G36C G61C    -6.63
47                           C11U C89A U112G    -1.71
48          C12U U33G C62G A105U U112G U125A    -6.16
49               C62A U96G G113C C123G U133A     -3.2
50                                 A74C G77C   -0.117
51                     G19A G58C G107A C114U    -3.12
52                                 C20U A43U    -2.08
53                      C3U G71U A121G U125A     1.49
54  A26G C49A U55C C62U G63A A83C U109A G113A    -6.66
55                            G44C G61A A84C   -0.524
56           C49U U54G U59A C79U C101A G113U    -5.96
57                                G47C C123G    -1.31
58                                C85U C123G    0.896
59                                C20U C124G    0.389
60                                  A6U G42U    -1.17
61                                C13A C123U    0.793
62                                  C3U C73U   -0.279
63                                C89U G120C    0.737
64                                 C11G G48U    -1.46
65                            G44U U54G C76A    -1.81
66                      A27U U32A C72U C114A    -5.96
67                 G17A C49G A83U U87C G117A    -3.65
68                           C82U U96G G122A    -1.25
69  C12G C20U G36A G71A C80U C82A C88A G120U U126C    -5.21
70                            A50G A74U A91C    -2.03
71                       A46U G71C U78A C86A    -1.63
72            A5G C13A G48C C73A U112A G120C   -0.914
73                                G71A G110A    -2.14
74  C3U U38G C62U G120A A121G G122A C123G U125C    -0.77
75                           A16C G47U A119U    -5.65
76                   A5C U9C C28G C56U G120A    -1.71
77                         C102G U112A G127U    -4.33
